Improvement over ref-1 values by entry
- systemTested: T1, human PD-L1 ECD-His (human, UniProt Q9NZQ7 19-238)
- T1 construct: extracellular domain; Analyte in all SPR and BLI runs; also called hPD-L1_ECD-His; hPD-L1 ECD-His; not shown: His tag
- T1 sequence (Q9NZQ7 19-238): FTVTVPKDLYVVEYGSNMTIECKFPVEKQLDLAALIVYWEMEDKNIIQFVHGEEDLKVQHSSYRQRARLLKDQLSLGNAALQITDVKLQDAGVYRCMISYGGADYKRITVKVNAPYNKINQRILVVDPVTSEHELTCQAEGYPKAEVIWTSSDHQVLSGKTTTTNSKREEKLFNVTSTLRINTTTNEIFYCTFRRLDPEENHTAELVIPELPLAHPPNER
- protocolDetails: SPR, ratio of KD to ref-1
Numbers only; they are read as fold.

Return the recorded Improvement over ref-1 value; entry: PL2 IgG2 (antibody, V domains shown) VH: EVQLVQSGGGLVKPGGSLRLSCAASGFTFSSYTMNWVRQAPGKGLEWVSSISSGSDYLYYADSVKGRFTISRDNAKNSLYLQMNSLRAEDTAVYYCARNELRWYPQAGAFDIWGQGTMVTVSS VL: QSVVTQPPSMSAAPGQNVTISCSGSSSYIESSYVSWYQQLPGTAPRLLIYDDDMRPSGIPDRFSGSKSGTSATLAITGLQTGDEADYYCEIWDSGLGGVFGGGTKLTVL
1.21

Return the recorded Improvement over ref-1 value; entry: PL2#4 IgG2 (antibody, V domains shown, Human IgG2 backbone) VH: EVQLVQSGGGLVKPGGSLRLSCAASGFTFSSYTMNWVRQAPGKGLEWVSSISSGSDYLYYADSVKGRFTISRDNAKNSLYLQMNSLRAEDTAVYYCARNELRWYPLAGAFDIWGQGTMVTVSS VL: QSVVTQPPSMSAAPGQRVTISCSGVSSYIESSYVSWYQQLPGTAPRLLIYDDDMRPSGIPDRFSGSKSGTSATLAITGLQTGDEADYYCKIWDSGLGGVFGGGTKLTVL
6.62

Return the recorded Improvement over ref-1 value; entry: PL2#5 IgG2 (antibody, V domains shown, Human IgG2 backbone) VH: EVQLVQSGGGLVKPGGSLRLSCAASGFTFSSYTMNWVRQAPGKGLEWVSSISSGSDYLYYADSVKGRFTISRDNAKNSLYLQMNSLRAEDTAVYYCARNELRWYPFAGAFDIWGQGTMVTVSS VL: QSVVTQPPSMSAAPGQRVTISCSGSSSYIESSYVSWYQQLPGTAPRLLIYDDDMRPSGIPDRFSGSKSGTSATLAITGLQTGDEADYYCEIWDSRLGGVFGGGTKLTVL
2.74

Return the recorded Improvement over ref-1 value; entry: PL2#39 IgG2 (antibody, V domains shown, Human IgG2 backbone) VH: EVQLVQSGGGLVKPGGSLRLSCAASGFTFSSYTMNWVRQAPGKGLEWVSSISSGSDYLYYADSVKGRFTISRDNAKNSLYLQMNSLRAEDTAVYYCARNELRWYPKAGAFDIWGQGTMVTVSS VL: QSVVTQPPSMSAAPGQRVTISCSGSSSYITSSYVSWYQQLPGTAPRLLIYDDDMRPSGIPDRFSGSKSGTSATLAITGLQTGDEADYYCKIWDSGLGGVFGGGTKLTVL
10.8
